# System: hLiMTs
# EXPERIMENTAL_DETAILS: Combined HCI (HCS) and cellular ATP 3D assay in hLiMTs
# CONDITION_SUMMARY: hLiMTs; ATP endpoint; cut-off <25x Avg Cmax
METRIC_NAME: hLiMTs <25x Avg Cmax ATP

# COMPOUND, MEASURED_TARGET, MEAS_VALUE
records = [
    ("CCN(CC)C(=O)/C(C#N)=C/c1cc(O)c(O)c([N+](=O)[O-])c1 [entacapone]", "hLiMTs", "-ve"),
    ("N[C@@H](Cc1cc(I)c(Oc2ccc(O)c(I)c2)c(I)c1)C(=O)O [liothyronine]", "hLiMTs", "-ve"),
    ("CCc1ccc(CCOc2ccc(CC3SC(=O)NC3=O)cc2)nc1 (stereo not drawn) [pioglitazone, reference compound]", "hLiMTs", "+ve"),
    ("CS(=O)(=O)CCNCc1ccc(-c2ccc3ncnc(Nc4ccc(OCc5cccc(F)c5)c(Cl)c4)c3c2)o1 [lapatinib]", "hLiMTs", "+ve"),
]

Lookup: Name the recorded hLiMTs <25x Avg Cmax ATP for O=C(O)Cc1ccccc1Nc1c(Cl)cccc1Cl [diclofenac] .
Found: +ve

Lookup: Name the recorded hLiMTs <25x Avg Cmax ATP for Cc1ccc(N(CC2=NCCN2)c2cccc(O)c2)cc1 [phentolamine] .
Found: -ve

Lookup: Name the recorded hLiMTs <25x Avg Cmax ATP for C[N+](C)(C)CC(=O)O [betaine, reference compound] .
Found: -ve

Lookup: Name the recorded hLiMTs <25x Avg Cmax ATP for CC(C)C(=O)Nc1ccc([N+](=O)[O-])c(C(F)(F)F)c1 [flutamide, reference compound] .
Found: +ve

Lookup: Name the recorded hLiMTs <25x Avg Cmax ATP for CN1CCN(C2=Nc3cc(Cl)ccc3Nc3ccccc32)CC1 [clozapine] .
Found: +ve

Lookup: Name the recorded hLiMTs <25x Avg Cmax ATP for Cn1cnc([N+](=O)[O-])c1Sc1ncnc2nc[nH]c12 [azathioprine] .
Found: +ve
